System: 188146-221-R-J1-PDC complex spheroid viability;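 also: spheroids exposed to compounds for seven days; 100% = DMSO vehicle control viability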
assayName: Anticancer human tumor 188146-221-R-J1-PDC patient-derived colon adenocarcinoma cell line growth inhibition [POLQ]
runConditions: second compound 1 µM; first compound 0.0316 µM; active compounds read low
resultType: viability, T/C (%)
Your answer is read as %, so omit the unit and give the number.

Field: example entries. Status: answers known.
- compound: "CC(C)n1c(=O)n(C)c2cnc3cc(F)c(-c4ccc(OCCCN5CCCCC5)nc4)cc3c21 + Nc1ccc(C#CCN(C(=O)Cc2ncc(C(F)(F)F)cc2C(F)(F)F)c2ccc(F)cc2)nn1"
  resultType: "viability, T/C"
  scaleUnit: "%"
  observedResult: 104
- compound: "O=c1[nH]cc(F)c(=O)[nH]1 + COC1C(OC(N)=O)C(O)C(Oc2ccc3c(O)c(NC(=O)c4ccc(O)c(CC=C(C)C)c4)c(=O)oc3c2C)OC1(C)C"
  resultType: "viability, T/C"
  scaleUnit: "%"
  observedResult: 111
- compound: "COc1cc2cc(C(=O)CCC(=O)O)sc2cc1OC + COC1C(OC(N)=O)C(O)C(Oc2ccc3c(O)c(NC(=O)c4ccc(O)c(CC=C(C)C)c4)c(=O)oc3c2C)OC1(C)C"
  resultType: "viability, T/C"
  scaleUnit: "%"
  observedResult: 101

Reported viability, T/C for O=C(Nc1ccc(O)c(NS(=O)(=O)c2ccc(F)cc2)c1)c1ccc(-c2ccccc2)cc1 + Cc1cccc(N(C)C(=O)C2C(O)CCN2c2nc(C)cc(C(F)(F)F)c2C#N)c1 : what is it?
98.5

Need viability, T/C of C=CC(=O)N1CCN(c2nc(=O)n(-c3c(C)ccnc3C(C)C)c3nc(-c4c(O)cccc4F)c(F)cc23)C(C)C1 (stereo not given) + Cc1cccc(N(C)C(=O)C2C(O)CCN2c2nc(C)cc(C(F)(F)F)c2C#N)c1 , thanks.
95.6

# lookup: viability, T/C of Cn1ncnc1[C@H]1c2n[nH]c(=O)c3cc(F)cc(c23)N[C@@H]1c1ccc(F)cc1 + COC1C(OC(N)=O)C(O)C(Oc2ccc3c(O)c(NC(=O)c4ccc(O)c(CC=C(C)C)c4)c(=O)oc3c2C)OC1(C)C
98.2

Suppose we examine the compound COc1cccc2c1C(=O)c1c(O)c3c(c(O)c1C2=O)CC(O)(C(=O)CO)CC3OC1CC(N)C(O)C(C)O1 (stereo not given) + Cc1cccc(N(C)C(=O)C2C(O)CCN2c2nc(C)cc(C(F)(F)F)c2C#N)c1 ; what viability, T/C value has been reported?
74
